Each item that follows carries a reported pIC50.
- ASSAYED_SYSTEM: PIM-2 (Homo sapiens (Human), UniProt Q9P1W9)
- Sequence (Q9P1W9 whole entry): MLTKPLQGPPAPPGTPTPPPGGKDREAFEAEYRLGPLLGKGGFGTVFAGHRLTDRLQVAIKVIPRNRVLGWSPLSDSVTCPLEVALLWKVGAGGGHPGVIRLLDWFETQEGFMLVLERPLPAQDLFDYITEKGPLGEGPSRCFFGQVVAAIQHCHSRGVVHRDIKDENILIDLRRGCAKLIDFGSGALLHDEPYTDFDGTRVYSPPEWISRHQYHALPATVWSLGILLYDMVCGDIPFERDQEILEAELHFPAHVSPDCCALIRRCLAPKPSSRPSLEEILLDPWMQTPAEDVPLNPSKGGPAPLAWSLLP
- PROTOCOL_TEXT: PIM-2 kinase inhibition assay: Dowex technique
- Format: biochemical
- TEST_CONDITIONS: 4 microM ATP, 5 microM Aktide, 1.5 nM enzyme
Structures can show the parent of a compound that is named as a salt.
Note on pIC50: it is the negative log10 of concentration, concentration in mol/L.

Study these solved cases before continuing.
CSc1ncc2c(n1)-c1c(c(C(N)=O)cn1C(C)C)CC2 [Compound 22]; 7.62
CSc1ncc2ccc3c(C(N)=O)cn([C@H]4CC[C@@H](N)CC4)c3c2n1 [Compound 34]; 9.00

Report pIC50, nothing else, for this molecule: CSc1ncc2c(n1)-c1c(c(C(N)=O)cn1CCO)CC2 [Compound 25]
6.27

Report pIC50, nothing else, for this molecule: CSc1ncc2ccc3c(C(N)=O)cn(C4CCNCC4)c3c2n1 [Compound 35]
7.64

Report pIC50, nothing else, for this molecule: CSc1ncc2ccc3c(C(N)=O)c(C)n(CCO)c3c2n1 [Compound 29]
6.39

Report pIC50, nothing else, for this molecule: CSc1ncc2c(n1)-c1c(c(C(N)=O)cn1C1CCNCC1)CC2 [Compound 32, hydrochloride]
6.80

* * *

- ASSAYED_SYSTEM: PIM-1 (Homo sapiens (Human))
- Sequence (P11309 whole entry): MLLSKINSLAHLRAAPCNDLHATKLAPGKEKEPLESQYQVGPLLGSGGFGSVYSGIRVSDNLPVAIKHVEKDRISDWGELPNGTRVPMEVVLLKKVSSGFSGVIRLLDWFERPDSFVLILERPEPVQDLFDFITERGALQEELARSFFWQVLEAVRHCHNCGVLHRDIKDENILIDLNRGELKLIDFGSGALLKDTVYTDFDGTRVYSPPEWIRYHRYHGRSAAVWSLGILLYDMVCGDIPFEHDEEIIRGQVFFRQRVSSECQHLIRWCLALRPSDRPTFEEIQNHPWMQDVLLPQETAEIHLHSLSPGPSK
pIC50: −log10 of the molar value.
Lab note: anything with pIC50 at or over 8 counts as Condition met; the rest go in Condition not met.

Reference set (2 entries):
Cn1c2c(c(C(N)=O)c1-c1ccccc1)CCc1cnc(N)nc1-2 [compound 3, reference compound]; Condition not met
CSc1ncc2c(n1)-c1c(c(C(N)=O)cn1CCO)CC2; Condition not met

Then there is this molecule:
Quick check: does Cn1c(-c2ccccc2)c(C(N)=O)c2ccc3cnc(N)nc3c21 [compound 4, reference compound] have pIC50 greater than or equal to 8?
Condition not met

* * *

- ASSAYED_SYSTEM: MPS1 (Homo sapiens (Human))
- Sequence (P33981 2-857): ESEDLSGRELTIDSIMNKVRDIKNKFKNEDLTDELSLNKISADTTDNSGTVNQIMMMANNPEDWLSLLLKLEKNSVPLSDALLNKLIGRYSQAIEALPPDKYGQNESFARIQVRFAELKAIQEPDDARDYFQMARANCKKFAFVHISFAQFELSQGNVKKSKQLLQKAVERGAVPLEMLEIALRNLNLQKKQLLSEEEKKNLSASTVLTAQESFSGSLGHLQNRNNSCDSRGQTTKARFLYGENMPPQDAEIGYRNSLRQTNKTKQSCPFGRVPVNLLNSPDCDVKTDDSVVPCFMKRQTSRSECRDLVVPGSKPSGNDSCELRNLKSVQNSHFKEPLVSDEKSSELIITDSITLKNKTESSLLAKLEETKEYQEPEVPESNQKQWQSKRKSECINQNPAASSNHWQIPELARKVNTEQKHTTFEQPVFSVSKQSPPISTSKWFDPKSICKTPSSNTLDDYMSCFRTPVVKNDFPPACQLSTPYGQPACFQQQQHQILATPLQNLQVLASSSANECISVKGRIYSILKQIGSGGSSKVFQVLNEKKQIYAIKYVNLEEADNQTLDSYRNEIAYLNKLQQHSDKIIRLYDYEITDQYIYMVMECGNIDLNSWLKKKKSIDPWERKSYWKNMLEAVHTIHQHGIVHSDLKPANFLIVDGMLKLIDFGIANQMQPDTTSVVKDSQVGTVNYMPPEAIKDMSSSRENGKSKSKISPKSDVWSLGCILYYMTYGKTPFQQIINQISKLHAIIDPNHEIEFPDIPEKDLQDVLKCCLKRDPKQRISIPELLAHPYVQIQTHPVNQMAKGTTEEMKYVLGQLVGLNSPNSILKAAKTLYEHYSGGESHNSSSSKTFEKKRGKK
- PROTOCOL_TEXT: Biochemical assay for inhibitors of MPS1 kinase activity (trans-phosphorylation, Dowex)
- TEST_CONDITIONS: 15 microM ATP, 200 microM P38-βtide substrate, 5 nM MPS1
Structures can show the parent of a compound that is named as a salt.
Each item that follows carries a reported IC50.
Give the value, in units of µM, as a plain number.

Report IC50, nothing else, for this molecule: CSc1ncc2ccc3c(C(N)=O)c(C)n(C(C)C)c3c2n1
0.622

Report IC50, nothing else, for this molecule: CSc1ncc2ccc3c(C(N)=O)cn(C4CCNCC4)c3c2n1
4.55

Report IC50, nothing else, for this molecule: CSc1ncc2c(n1)-c1c(c(C(N)=O)cn1C(C)C)CC2
0.382

Report IC50, nothing else, for this molecule: CSc1ncc2c(n1)-c1c(c(C(N)=O)cn1[C@H]1CC[C@@H](N)CC1)CC2 [Compound 33, hydrochloride]
1.55

Report IC50, nothing else, for this molecule: CSc1ncc2ccc3c(C(N)=O)cn([C@H]4CC[C@@H](N)CC4)c3c2n1
0.855

Report IC50, nothing else, for this molecule: CCc1cccc(CC)c1NC(=O)c1cn(C)c2c1CCCc1cnc(Nc3ccc(N4CCN(C)CC4)cc3OC)nc1-2
0.132

Report IC50, nothing else, for this molecule: COc1cc(N2CCN(C)CC2)ccc1Nc1ncc2c(n1)-c1c(c(C(N)=O)c(C)n1C)CC2
0.023

Report IC50, nothing else, for this molecule: CSc1ncc2ccc3c(C(N)=O)c(C)n(CCO)c3c2n1
2.94
